Molecular target: JAK3(h) (Homo sapiens (Human), UniProt P52333)
Sequence (P52333 whole entry): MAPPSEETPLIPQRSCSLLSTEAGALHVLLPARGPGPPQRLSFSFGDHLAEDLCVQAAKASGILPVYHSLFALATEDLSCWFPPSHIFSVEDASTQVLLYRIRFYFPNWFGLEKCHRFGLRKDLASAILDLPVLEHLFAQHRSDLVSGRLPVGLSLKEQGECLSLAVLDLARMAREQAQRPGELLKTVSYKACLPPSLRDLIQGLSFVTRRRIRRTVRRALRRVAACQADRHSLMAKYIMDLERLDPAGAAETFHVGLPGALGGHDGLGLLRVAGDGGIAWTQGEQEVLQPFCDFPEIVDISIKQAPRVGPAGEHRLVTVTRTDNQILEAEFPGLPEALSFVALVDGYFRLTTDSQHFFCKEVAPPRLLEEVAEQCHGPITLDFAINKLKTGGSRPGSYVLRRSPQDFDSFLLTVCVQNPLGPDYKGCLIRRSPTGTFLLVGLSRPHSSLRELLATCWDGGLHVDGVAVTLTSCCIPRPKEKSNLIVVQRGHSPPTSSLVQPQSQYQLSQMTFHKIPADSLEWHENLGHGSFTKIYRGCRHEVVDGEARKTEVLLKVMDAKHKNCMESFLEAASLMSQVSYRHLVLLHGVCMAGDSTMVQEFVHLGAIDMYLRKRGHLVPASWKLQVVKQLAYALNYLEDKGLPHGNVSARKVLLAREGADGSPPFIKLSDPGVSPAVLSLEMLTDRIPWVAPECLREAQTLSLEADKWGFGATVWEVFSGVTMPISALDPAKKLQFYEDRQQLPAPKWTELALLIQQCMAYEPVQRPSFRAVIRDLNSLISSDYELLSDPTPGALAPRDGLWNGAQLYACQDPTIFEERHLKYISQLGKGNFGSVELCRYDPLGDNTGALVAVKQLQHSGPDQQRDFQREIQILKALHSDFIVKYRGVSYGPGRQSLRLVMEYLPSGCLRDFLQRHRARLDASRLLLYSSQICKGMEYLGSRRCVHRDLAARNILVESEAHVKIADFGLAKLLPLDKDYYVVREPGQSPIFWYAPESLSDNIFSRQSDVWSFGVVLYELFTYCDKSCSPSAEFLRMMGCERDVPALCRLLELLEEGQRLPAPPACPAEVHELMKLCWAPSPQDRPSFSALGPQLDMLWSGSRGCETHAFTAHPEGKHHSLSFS
Assay: JAK3 kinase activity test in vitro ([γ-33P]-ATP, Eurofins)
Type: biochemical
The molecules listed here are annotated with their pIC50.
The read-out pIC50 is expressed as -log10 of concentration in moles per litre.

Some molecules with recorded pIC50:
# molecule, readout.name, recorded.result
data = [
    ("Cn1ccc(-c2cn3nccc3c(-c3cnn([C@]4(CC#N)CC5(C[C@@H](C#N)C5)C4)c3)n2)n1 (stereo partly drawn)", "pIC50", 5.65),
    ("N#CC[C@]1(n2cc(-c3nc(-c4cc(N)[nH]n4)cn4nccc34)cn2)CC2(C[C@@H](C#N)C2)C1 (stereo partly drawn)", "pIC50", 7.00),
    ("Cn1nc(-c2cn3nccc3c(-c3cnn([C@]4(CC#N)CC5(C[C@H](C#N)C5)C4)c3)n2)cc1N (stereo partly drawn)", "pIC50", 6.53),
    ("Cn1ccc(-c2cn3nccc3c(-c3cnn(C(CC#N)C45CC(C#N)(C4)C5)c3)n2)n1 (stereo not drawn)", "pIC50", 5.00),
]

Could you now consider this next molecule?
Query: Requested field: pIC50. Item: Cn1cc(-c2cc(-c3cnn([C@]4(CC#N)CC5(C[C@H](C#N)C5)C4)c3)c3ccnn3c2)cn1 (stereo partly drawn)
Result: 7.17

---

Test: Pharmacokinetic (PK) test in mice
Assay type: in vivo
Conditions: mouse, plasma; male balb/c mice; intravenous 1 mg/kg, gavage 3 mg/kg; read-out: Cl (clearance rate)
readout.name: clearance (mL/min/kg)
Only the number, expressed in mL/min/kg, is required.

Query: Requested field: clearance. Item: Cn1cc(-c2cn3nccc3c(-c3cnn([C@]4(CC#N)CC5(C[C@H](C#N)C5)C4)c3)n2)cn1 (stereo partly shown)
Result: 15.6

---

The molecules listed here are annotated with their IC50.
Target: TYK2(h) (Homo sapiens (Human), UniProt P29597)
Sequence (P29597 whole entry): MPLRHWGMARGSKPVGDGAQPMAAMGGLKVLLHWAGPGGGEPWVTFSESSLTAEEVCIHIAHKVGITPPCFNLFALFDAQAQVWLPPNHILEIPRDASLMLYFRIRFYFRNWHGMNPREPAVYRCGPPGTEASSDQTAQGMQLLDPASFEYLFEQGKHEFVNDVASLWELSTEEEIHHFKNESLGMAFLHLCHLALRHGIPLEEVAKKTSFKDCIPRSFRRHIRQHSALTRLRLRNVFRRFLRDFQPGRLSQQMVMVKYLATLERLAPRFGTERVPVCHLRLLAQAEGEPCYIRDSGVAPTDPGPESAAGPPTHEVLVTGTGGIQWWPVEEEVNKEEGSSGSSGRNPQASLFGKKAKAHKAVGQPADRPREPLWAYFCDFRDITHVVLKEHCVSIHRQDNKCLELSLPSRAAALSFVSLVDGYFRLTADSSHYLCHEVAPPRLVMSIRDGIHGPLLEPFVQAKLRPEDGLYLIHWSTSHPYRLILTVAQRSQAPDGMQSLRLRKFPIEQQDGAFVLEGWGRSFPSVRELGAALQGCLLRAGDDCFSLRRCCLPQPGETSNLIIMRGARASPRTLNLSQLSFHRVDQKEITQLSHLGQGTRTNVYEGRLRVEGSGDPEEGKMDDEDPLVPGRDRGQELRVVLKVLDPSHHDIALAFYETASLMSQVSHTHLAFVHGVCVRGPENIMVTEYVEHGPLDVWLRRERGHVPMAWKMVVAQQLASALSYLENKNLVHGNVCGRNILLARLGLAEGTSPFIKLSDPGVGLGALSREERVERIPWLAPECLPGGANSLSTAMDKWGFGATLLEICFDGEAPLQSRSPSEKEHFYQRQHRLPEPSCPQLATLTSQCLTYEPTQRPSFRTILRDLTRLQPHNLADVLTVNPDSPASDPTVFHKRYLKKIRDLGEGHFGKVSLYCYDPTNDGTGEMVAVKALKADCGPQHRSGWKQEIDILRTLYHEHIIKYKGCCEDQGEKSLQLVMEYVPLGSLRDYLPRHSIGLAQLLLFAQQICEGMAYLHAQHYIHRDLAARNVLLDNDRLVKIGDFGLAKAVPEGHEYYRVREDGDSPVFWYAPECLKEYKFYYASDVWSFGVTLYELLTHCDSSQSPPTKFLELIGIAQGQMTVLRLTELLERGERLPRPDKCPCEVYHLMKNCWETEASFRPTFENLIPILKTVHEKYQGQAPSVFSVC
Only the number, expressed in nM, is required.

Some molecules with recorded IC50:
# molecule, IC50 [nM]
rows = [
    ("Cn1cc(-c2cc(-c3cnn([C@]4(CC#N)CC5(C[C@H](C#N)C5)C4)c3)c3ccnn3c2)cn1 (stereo partly drawn)", 2),
    ("Cn1ccc(-c2cn3nccc3c(-c3cnn([C@]4(CC#N)CC5(C[C@@H](C#N)C5)C4)c3)n2)n1 (stereo partly drawn)", 9),
    ("Cn1nc(-c2cn3nccc3c(-c3cnn([C@]4(CC#N)CC5(C[C@H](C#N)C5)C4)c3)n2)cc1N (stereo partly drawn)", 0.8),
]

Query: Record Cn1ccc(-c2cn3nccc3c(-c3cnn([C@]4(CC#N)CC5(C[C@H](C#N)C5)C4)c3)n2)n1 (stereo partly drawn) : what is its IC50 with TYK2(h) (Homo sapiens (Human), UniProt P29597)?
Result: 20

Query: Record N#CC[C@]1(n2cc(-c3nc(-c4cc(N)[nH]n4)cn4nccc34)cn2)CC2(C[C@@H](C#N)C2)C1 (stereo partly drawn) : what is its IC50 with TYK2(h) (Homo sapiens (Human), UniProt P29597)?
Result: 0.7

Query: Record "Cn1ccc(-c2cn3nccc3c(-c3cnn(C4(CC#N)CC5(CN(CC#N)C5)C4)c3)n2)n1" : what is its IC50 with TYK2(h) (Homo sapiens (Human), UniProt P29597)?
Result: 177

---

Assay: Pharmacokinetic (PK) test in mice
Assay type: in vivo
Conditions: mouse, plasma; male balb/c mice; intravenous 1 mg/kg, gavage 3 mg/kg
readout.name: AUC(0-inf) (µM·h)
Only the number, expressed in µM·h, is required.

Query: Requested field: AUC(0-inf). Item: Cn1cc(-c2cn3nccc3c(-c3cnn([C@]4(CC#N)CC5(C[C@H](C#N)C5)C4)c3)n2)cn1 (stereo partly shown) [Compound 1]
Result: 7.67

---

Assay: Pharmacokinetic (PK) test in mice
Format: in vivo
Conditions: mouse, plasma; male balb/c mice; intravenous 1 mg/kg, gavage 3 mg/kg; read-out: Vd (distribution volume)
Description: The clear solution obtained after dissolving the test compound was administered to male mice (balb/c) via tail vein injection and gavage respectively. After administration of the test compound, blood samples were collected from mandibular veins for the intravenous injection group (1 mg/kg) at 0.083, 0.25, 0.5, 1, 2, 4, 8 and 24 h and for the gavage group (3 mg/kg) was at 0.25, 0.5, 1, 2, 4, 6, 8 and 24 h, respectively, and centrifuged to obtain plasma. […]
readout.name: Vd (L/kg)
Only the number, expressed in L/kg, is required.

Query: Requested field: Vd. Item: Cn1cc(-c2cn3nccc3c(-c3cnn([C@]4(CC#N)CC5(C[C@H](C#N)C5)C4)c3)n2)cn1 (stereo partly shown)
Result: 1.59
